# EXPERIMENTAL SYSTEM: Kras and SOS1 (biotin-tagged human Kras loaded with GDP, His-tagged human SOS1) (Homo sapiens, UniProt P01116, G12D)
# Construct: made in house; host or cells: E. coli (stated for Kras only)
# Sequence (P01116 1-188 isoform P01116-2 G12D): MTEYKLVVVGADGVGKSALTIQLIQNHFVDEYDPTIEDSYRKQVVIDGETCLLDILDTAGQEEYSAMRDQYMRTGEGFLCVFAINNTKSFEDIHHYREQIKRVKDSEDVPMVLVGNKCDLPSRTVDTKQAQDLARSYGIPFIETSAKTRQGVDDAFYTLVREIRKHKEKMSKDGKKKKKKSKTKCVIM
# METHOD: Protein-protein interaction inhibition between Kras and SOS1 (KrasGl2D-SOS PPI) using AlphaScreen
# Type: binding
# ASSAY CONTEXT: AlphaScreen; biotin-tagged human Kras loaded with GDP, His-tagged human SOS1; read-out: KRAS G12D-SOS PPI IC50
pIC50: −log10 of the molar value. Starred links: 1 amine or outer side, 2 acyl side, 3 side chain; linkers in the order of their positions; H or OH if unused. Positions of bridges follow the written chain, without caps; N, C: chain ends. Non-standard residues stand in square brackets, D forms with d. Residues, ends and D or L forms follow the SMILES beside them. *: point of attachment. hPhe(3-Cl-4-CF3) = N[C@@H](CCc1ccc(C(F)(F)F)c(Cl)c1)C(=O)O; hPhe(4-CF3) = N[C@@H](CCc1ccc(C(F)(F)F)cc1)C(=O)O; NMePhe(4-Cl) = CN[C@@H](Cc1ccc(Cl)cc1)C(=O)O; NMePhe(3-Me) = CN[C@@H](Cc1cccc(C)c1)C(=O)O; NMePhe(4-Me) = CN[C@@H](Cc1ccc(C)cc1)C(=O)O; X3 = CN([C@@H](CCc1ccncc1)C(=O)[*:2])[*:1]; NMedβ3hAla = C[C@H](CC(=O)[*:2])N(C)[*:1]; NMeGly(cPent) = CN[C@H](C(=O)O)C1CCCC1; Phe(3-I) = N[C@@H](Cc1cccc(I)c1)C(=O)O; NMeCha = CN[C@@H](CC1CCCCC1)C(=O)O; NMeChg = CN[C@H](C(=O)O)C1CCCCC1; NMeF = CN[C@@H](Cc1ccccc1)C(=O)O; NMeD = CN[C@@H](CC(=O)O)C(=O)O; NMeL = CN[C@@H](CC(C)C)C(=O)O; NPrAla = CCCN[C@@H](C)C(=O)O; NMeV = CN[C@H](C(=O)O)C(C)C; d(β3hA) = C[C@@H](N)CC(=O)O; NMeS = CN[C@@H](CO)C(=O)O; NMeA = CN[C@@H](C)C(=O)O; Piperidide = C1CCN(*)CC1; Pra = C#CC[C@H](N)C(=O)O; Pyrrolidide = C1CCN(*)C1; Ac5c = NC1(C(=O)O)CCCC1; Aze = O=C(O)[C@@H]1CCN1; Isopentyl = CC(C)CC*; Sar = CNCC(=O)O
Short version: pIC50 at least 8 is Met, less is Not met.

C#CC[C@@H]1NC(=O)[C@H](CC(C)C)N(C)C(=O)C[C@@H](C(=O)N2CCCCC2)N(C)C(=O)[C@H](C2CCCCC2)N(C)C(=O)C2(CCCC2)NC(=O)[C@@H]2CCCN2C(=O)[C@H](CCc2ccc(C(F)(F)F)c(Cl)c2)NC(=O)CN(C)C(=O)[C@H](CC2CCCCC2)N(C)C(=O)CN(C)C(=O)CN(C)C1=O [Compound 716] ([NMeL][Pra][Sar][Sar][NMeCha][Sar][hPhe(3-Cl-4-CF3)]P[Ac5c][NMeChg][NMeD]-Piperidide; lactam N-11) = Met
CC[C@H](C)[C@@H]1NC(=O)[C@H](C)N(C)C(=O)C[C@@H](C(=O)N2CCCCC2)NC(=O)[C@H](CC(C)C)N(C)C(=O)[C@H](Cc2ccccc2)N(C)C(=O)[C@H](CC(C)C)NC(=O)[C@H](Cc2cccc(I)c2)NC(=O)CN(C)C(=O)[C@H](Cc2ccc(Cl)cc2)N(C)C(=O)CN(C)C(=O)CN(C)C1=O [Compound 637] ([NMeA]I[Sar][Sar][NMePhe(4-Cl)][Sar][Phe(3-I)]L[NMeF][NMeL]D-Piperidide; lactam N-11) = Not met
CC[C@H](C)[C@@H]1NC(=O)[C@H](CC(C)C)N(C)C(=O)C[C@@H](C(=O)N2CCCCC2)N(C)C(=O)[C@H](C(C)C)N(C)C(=O)C2(CCCC2)NC(=O)[C@@H]2CCCN2C(=O)[C@H](CCc2ccc(C(F)(F)F)c(Cl)c2)NC(=O)CN(C)C(=O)[C@H](Cc2cccc(C)c2)N(C)C(=O)CN(C)C(=O)CN(C)C1=O [Compound 1626] ([NMeL]I[Sar][Sar][NMePhe(3-Me)][Sar][hPhe(3-Cl-4-CF3)]P[Ac5c][NMeV][NMeD]-Piperidide; lactam N-11) = Met
CC[C@H](C)[C@@H]1NC(=O)[C@H](CC(C)C)N(C)C(=O)C[C@@H](C(=O)N(C)C)N(C)C(=O)[C@H](C2CCCC2)N(C)C(=O)C2(CCCC2)NC(=O)[C@H](CCc2ccncc2)N(C)C(=O)[C@H](CCc2ccc(C(F)(F)F)c(Cl)c2)NC(=O)CN(C)C(=O)[C@H](CC2CCCCC2)N(C)C(=O)[C@@H]2CCN2C(=O)[C@H](C)N(C)C1=O [Compound 1881] ([NMeL]I[NMeA][Aze][NMeCha][Sar][hPhe(3-Cl-4-CF3)][X3][Ac5c][NMeGly(cPent)][NMeD]-NMe2; lactam N-11) = Met
CC[C@H](C)[C@@H]1NC(=O)[C@H](CC(C)C)N(C)C(=O)C[C@@H](C)NC(=O)[C@H](C)N(C)C(=O)C2(CCCC2)NC(=O)[C@@H]2CCCN2C(=O)[C@H](CCc2ccc(C(F)(F)F)c(Cl)c2)NC(=O)CN(C)C(=O)[C@H](Cc2ccc(C)cc2)N(C)C(=O)[C@@H]2CCN2C(=O)[C@H](C)N(C)C1=O [Compound 1239] (cyclo([Ac5c][NMeA][d(β3hA)][NMeL]I[NMeA][Aze][NMePhe(4-Me)][Sar][hPhe(3-Cl-4-CF3)]P)) = Not met
CCCN1C(=O)C[C@@H](C)N(C)C(=O)[C@H](C(C)C)N(C)C(=O)C2(CCCC2)NC(=O)[C@@H]2CCCN2C(=O)[C@H](CCc2ccc(C(F)(F)F)c(Cl)c2)NC(=O)CN(C)C(=O)[C@H](CC2CCCCC2)N(C)C(=O)CN(C)C(=O)CN(C)C(=O)[C@H]([C@@H](C)CC)NC(=O)[C@@H]1C [Compound 824] (cyclo([Ac5c][NMeV][NMedβ3hAla][NPrAla]I[Sar][Sar][NMeCha][Sar][hPhe(3-Cl-4-CF3)]P)) = Met
CC[C@H](C)[C@@H]1NC(=O)[C@H](C)N(C)C(=O)C[C@@H](C(=O)N2CCCC2)NC(=O)[C@H](CC(C)C)N(C)C(=O)[C@H](COCCC(C)C)N(C)C(=O)[C@H](CC(C)C)NC(=O)[C@H](CCc2ccc(C(F)(F)F)cc2)NC(=O)CN(C)C(=O)[C@H](Cc2ccc(Cl)cc2)N(C)C(=O)CN(C)C(=O)CN(C)C1=O [Compound 675] ([NMeA]I[Sar][Sar][NMePhe(4-Cl)][Sar][hPhe(4-CF3)]L[NMeS](Isopentyl)[NMeL]D-Pyrrolidide; lactam N-11) = Not met
